In this section we review reported IC50 values for a set of compounds.
target: recombinant human DAO (diamine oxidase) (Homo sapiens, UniProt P19801); construct: purchased R&D systems; assay: Activity evaluation on recombinant human DAO (Amplex Red/HRP-coupled assay, 1 mM putrescine substrate); type: biochemical; conditions: 1 mM putrescine, read-out: Inhibitory Activity (IC50, nM) DAO
Sequence (P19801 20-751): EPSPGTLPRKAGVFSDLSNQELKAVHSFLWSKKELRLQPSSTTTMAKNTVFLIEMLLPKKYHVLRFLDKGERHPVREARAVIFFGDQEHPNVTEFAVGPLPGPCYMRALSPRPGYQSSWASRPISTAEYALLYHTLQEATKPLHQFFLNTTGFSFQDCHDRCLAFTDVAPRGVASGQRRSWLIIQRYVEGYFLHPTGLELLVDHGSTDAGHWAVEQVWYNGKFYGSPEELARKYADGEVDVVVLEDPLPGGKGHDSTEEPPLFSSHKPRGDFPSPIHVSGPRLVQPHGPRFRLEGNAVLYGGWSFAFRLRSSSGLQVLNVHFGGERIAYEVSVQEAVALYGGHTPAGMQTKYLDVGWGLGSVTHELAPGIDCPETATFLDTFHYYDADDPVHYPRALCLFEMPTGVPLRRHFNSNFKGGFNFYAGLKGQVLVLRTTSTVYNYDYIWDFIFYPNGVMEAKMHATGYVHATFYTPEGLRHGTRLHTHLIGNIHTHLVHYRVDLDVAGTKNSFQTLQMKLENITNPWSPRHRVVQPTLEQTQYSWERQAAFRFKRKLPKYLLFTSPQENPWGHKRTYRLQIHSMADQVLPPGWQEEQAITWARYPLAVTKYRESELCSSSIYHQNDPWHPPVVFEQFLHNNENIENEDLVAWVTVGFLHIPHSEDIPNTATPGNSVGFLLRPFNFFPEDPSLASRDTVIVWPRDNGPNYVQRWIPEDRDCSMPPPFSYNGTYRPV
Counter-ions that a name gives are not always drawn.

>>> result("Cc1cc(-c2ccc(N3CCNCC3)cc2)cnc1-n1cnn(CC(CN)=C(F)F)c1=O [Example 69, Ditrifluoroacetate]")
"> 100000 nM"
>>> result("CC(=O)c1ccc(-c2ccc(Cn3cnn(CC(CN)=C(F)F)c3=O)s2)cc1 [Example 100, trifluoroacetate]")
"> 10000 nM"
>>> result("CN1C(=O)COc2cc(-c3ccc(Cn4cnn(CC(CN)=C(F)F)c4=O)s3)ccc21 [Example 144, Trifluoroacetate]")
"> 10000 nM"
>>> result("NCC(Cn1ncn(Cc2ccc(-c3cccc(-c4cc[nH]n4)c3)s2)c1=O)=C(F)F [Example 110, Trifluoroacetate]")
"> 100000 nM"

QUERY: Tell me the measured IC50 of NCC(Cn1ncn(-c2cc(Br)ccn2)c1=O)=C(F)F [Example 9, Trifluoroacetate] , please.
RESULT: 7100 nM
